# Measurement notes: binders of probe aHhip on microarray, primary screen, stem cell growth factor project, biochemical, small-molecule microarray, fluorescence 635/667 (AID 1087);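 note: score merges spot fluorescence at 667nm with spot signal to noise ratio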
# Experimental setup: higher = more signal
Reported metric: composite z-score
Give the value as a plain number.

{"Compound": "O=C1OCC=C[C@H]2OC34C=CCN(c5ccc(Cl)cc5)C(=O)[C@H]3N(CCO)C(=O)[C@@H]4[C@@H]12 (some centres not stated)", "composite z-score": -0.137}
{"Compound": "COC(=O)[C@H](Cc1ccccc1)N1CC(/C=C/C2CC2)=C[C@H]1[C@H](O)Cc1ccccc1", "composite z-score": 0.0274}
{"Compound": "CC(C)(C)N1CC=CC23O[C@@H]4C=CCOC(=O)[C@@H]4[C@H]2C(=O)N(CCCCCCO)[C@@H]3C1=O (some centres not stated)", "composite z-score": -0.284}
{"Compound": "CCOC(=O)c1ccc(NC(=O)O[C@H]2[C@H](OC(=O)Nc3ccc4c(c3)OCO4)[C@@H](OC(=O)Nc3ccc4c(c3)OCO4)[C@@H](OC)O[C@@H]2CO)cc1", "composite z-score": -0.318}
{"Compound": "CCCCO[C@H]1C[C@H]2C(I)=C[C@@H]1C(=O)[C@]21CO1", "composite z-score": -0.236}
{"Compound": "COc1ccc(-c2cc3c(c(CCc4ccccc4)n2)[Si](C(C)C)(C(C)C)OC3)cn1", "composite z-score": 0.113}

Next compound, composite z-score to be filled in.
Exercise: Identify composite z-score associated with the compound "CCOC(=O)C1=CC[C@@H](c2cccc(Cl)c2)N(S(=O)(=O)c2ccc(C)cc2)C1"
Key: -0.0994

====

# Test system: Chordin-like protein 2 (CHRDL2)
# Measurement notes: CHRDL2 small-molecule binders, primary screen, biochemical, small-molecule microarray, 635 nm fluorescence (AID 1126);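 note: printed compound slides probed with Chrdl2 protein at 4 µg/mL for 1 h at 4 C; score merges 667 nm emission intensity with signal to noise over three replicate slides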
# Experimental setup: small-molecule microarray binding, fluorescence 635 nm; higher = more signal
The label depends only on composite z-score: YES if it is at least -0.5, NO if it is smaller.

{"Compound": "C=CCNC(=O)[C@H]1[C@@H]2C(=O)O[C@@H](c3ccccc3)[C@@H](c3ccccc3)N2[C@@H](c2ccc(O)cc2)[C@]12C(=O)Nc1ccc(C#CC3(O)CCCCCC3)cc12", "Discrete label": "YES"}
{"Compound": "CN1C(=O)C2C=CC(C(O)c3ccc(F)cc3)N(Nc3ccccc3)C2C1=O (stereo not drawn)", "Discrete label": "NO"}
{"Compound": "CCCCCCc1nc(C2CC2)cc2c1[Si](C(C)C)(C(C)C)O[C@H]2c1ccccc1", "Discrete label": "YES"}
{"Compound": "O=C1C2C=CC(C(O)c3ccc(Br)cc3)N(Nc3ccccc3F)C2C(=O)N1c1ccccc1 (stereo not drawn)", "Discrete label": "YES"}
{"Compound": "Cc1cc(C)c(C(O)C2C=CC3C(=O)NC(=O)C3N2Nc2ccc(Cl)cc2Cl)c(C)c1 (stereo not drawn)", "Discrete label": "YES"}
{"Compound": "COc1ccc(-c2cc3c(c(CCc4ccccc4)n2)[Si](C(C)C)(C(C)C)OC3)cn1", "Discrete label": "YES"}

Exercise: Has "Cc1ccc(S[C@]2(C(=O)NCCCN(C)C)CC(=O)N(C3CCCCC3)[C@@H]2c2ccc(CO)cc2)cc1" a recorded composite z-score greater than or equal to -0.5?
Key: NO

Exercise: Has "O=C(NCC(F)(F)F)[C@@H]1c2ccccc2C(=O)N(Cc2ccc(OC(F)(F)F)cc2)[C@H]1c1ccc(CO)cc1" a recorded composite z-score greater than or equal to -0.5?
Key: YES
